In this section we review reported pKd values for a set of binders.
target: SARS-CoV-2 spike RBD (Wuhan-Hu-1) (Severe acute respiratory syndrome …, UniProt P0DTC2); experiment: SPR
pKd: −log10 of the molar value.
Quantity: pKd

>>> value("COVIC-291 (antibody, V domains shown) VH: EVQLVESGGGLVQPGRSLRLSCAASGFTFDDYAMHWVRQAPGKGLEWVSGISWNSDSIDYADSVKGRFTISRDNAKNSLYLQMNSLRAEDTALYYCAKDRGYEILTPASFDYWGQGTLVTVSS VL: DIQMTQSPSSLSASVGDRVTITCRASQSISSYLNWFQHKPGKAPKLLIYGASSLQSGVPSRFSGSGSGTDFTLTISSLQPEDFATYYCQQSYSTPPYTFGQGTKLEIK")
8.17
>>> value("COVIC-32 (antibody, V domains shown) VH: QVQLLESGGGLVQPGGSLRLSCAASGFTFSSYAMSWVRQAPGKGLEWASAISGSGGSTYYADSVEGRFTISRDNSKNTLYLQMNSLRAEDTAVYYCAKDTGYCGDDCYIKLIRGGPDYWGQGTLVTVSS VL: DIVMTQSPLSLPVTLGQPASISCRSSQSLVYSDGNTFLNWFQQRPGQSPRRLIYQVSNRDSGVPDRFSGSGSGTDFTLKISRVEAEDVGVYYCMQGTHWPRTFGQGTKLEIK")
8.75
>>> value("COVIC-361 (antibody, V domains shown) VH: EVQLVESGGGLVQPGGSLRLSCKASGISVAPHAVTWVRQAPGKGLEWIGVIASNADTYYASWAKGRFTISRDNSKNTLYLQMNSLRAEDTAVYYCARHPGSAGYGYTYYYAMDPWGQGTLVTVSS VL: DIQMTQSPSSLSASVGDRVTITCQASQDVKYAINWYQQKPGKAPKLLIYGTSSRGEGVPSRFSGSGSGTDYTLTISSLQPEDFATYYCQQGYVVSIFFGGGTKVEIK")
10.62
